Experiment: NCI Yeast Anticancer Drug Screen. Data for the sgs1 mgt1 strain (AID 161);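 also: 0% = growth of cultures given vehicle only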
Details: S. cerevisiae sgs1 mgt1 strain, at 50.0 µM, active compounds read high
About 79,000 compounds went through this panel and 15% of them were active in at least one assay; those are over-represented in the sample as a whole. Activity calls are given as the source filed them. Rule as the data show it: active = growth inhibition above about 70%; inactive = the rest.
measurement type: growth inhibition

Input line: Suppose we examine the molecule `CCOC(=O)CCCS(C)(=O)=O` ; what growth inhibition value has been reported?
Output line: -32% (inactive)

Input line: Suppose we examine the molecule `O=C(Nc1cccc(NC(=O)Nc2cc(C(F)(F)F)ccc2Cl)c1)Nc1cc(C(F)(F)F)ccc1Cl` ; what growth inhibition value has been reported?
Output line: 9.55% (inactive)

Input line: Suppose we examine the molecule `Oc1ccc(Cc2ccccc2)c2cccnc12` ; what growth inhibition value has been reported?
Output line: -12.7% (inactive)

Input line: Suppose we examine the molecule `CCCNC(=O)c1ccc(S(N)(=O)=O)cc1` ; what growth inhibition value has been reported?
Output line: -13.2% (inactive)

Input line: Suppose we examine the molecule `O=c1[nH]c(O)c(/C=C2/C=Nc3ccccc32)[nH]1` ; what growth inhibition value has been reported?
Output line: -8.35% (inactive)

Input line: Suppose we examine the molecule `O=C(O)CCCCNC(=O)c1ccccc1` ; what growth inhibition value has been reported?
Output line: 3.25% (inactive)

Input line: Suppose we examine the molecule `C/C(=N/NC(N)=O)c1ccco1` ; what growth inhibition value has been reported?
Output line: -3.55% (inactive)

Input line: Suppose we examine the molecule `CN(C)CCN(Cc1ccccc1)c1ccccc1` ; what growth inhibition value has been reported?
Output line: -13.6% (inactive)

Input line: Suppose we examine the molecule `Cc1c(O)cnc2nn(-c3ccccc3)c(=N)n12` ; what growth inhibition value has been reported?
Output line: 35.7% (inactive)

Input line: Suppose we examine the molecule `COC(=O)/C=C\C(=O)OC` ; what growth inhibition value has been reported?
Output line: -15.1% (inactive)

Input line: Suppose we examine the molecule CC1CC(O)CC(C)(C)C1 (centres undefined) ; what growth inhibition value has been reported?
Output line: 1.35% (inactive)

Input line: Suppose we examine the molecule `CCOC(=O)C/C(C)=N\O` ; what growth inhibition value has been reported?
Output line: 7.9% (inactive)

Input line: Suppose we examine the molecule `CCNc1nc2c(cnn2C)c(=O)[nH]1` ; what growth inhibition value has been reported?
Output line: 4.4% (inactive)

Input line: Suppose we examine the molecule `O=[N+]([O-])c1cccc2nsnc12` ; what growth inhibition value has been reported?
Output line: 53.8% (inactive)

* * *

For each of the compounds below, state its growth inhibition.
Assay: NCI Yeast Anticancer Drug Screen. Data for the bub3 strain (AID 167)
Details: S. cerevisiae bub3 mutant strain, at 50.0 µM, active compounds read high
About 79,000 compounds went through this panel and 15% of them were active in at least one assay; those are over-represented in the sample as a whole.
Please respond with the number in % and leave the unit unwritten.

Input line: Suppose we examine the compound `N#CCCc1ccc(O)cc1` ; what growth inhibition value has been reported?
Output line: -17.9

Input line: Suppose we examine the compound `Nc1ncnc2[nH]ncc12` ; what growth inhibition value has been reported?
Output line: 4.7

Input line: Suppose we examine the compound `O=C1C=CC(=O)N1c1ccc(I)cc1Cl` ; what growth inhibition value has been reported?
Output line: 32.3

Input line: Suppose we examine the compound `O=S(=O)(O)c1ccc(Cl)c(Cl)c1` ; what growth inhibition value has been reported?
Output line: -19.5

Input line: Suppose we examine the compound `CC(=O)CC(=O)N(C)C` ; what growth inhibition value has been reported?
Output line: -2.5

Input line: Suppose we examine the compound `N#C/C(=C\c1cc(O)c(O)c(O)c1)C(N)=O` ; what growth inhibition value has been reported?
Output line: 25.7

Input line: Suppose we examine the compound `CCN(CC)c1ccc2nc3ccc(=[N+](CC)CC)cc-3oc2c1` ; what growth inhibition value has been reported?
Output line: -246

Input line: Suppose we examine the compound C=CC(O)CCC (stereo not given) ; what growth inhibition value has been reported?
Output line: -1.6

Input line: Suppose we examine the compound `Nc1ccc(N)c([N+](=O)[O-])c1` ; what growth inhibition value has been reported?
Output line: -14.8

Input line: Suppose we examine the compound `Cc1cc(O)ccc1O` ; what growth inhibition value has been reported?
Output line: 3.5

Input line: Suppose we examine the compound `Cc1cc(C)c(CC(=O)O)c(C)c1` ; what growth inhibition value has been reported?
Output line: 4.3

Input line: Suppose we examine the compound `CC1=NN(c2ccccc2)C(=O)/C1=C\N1CC(=O)NC1=S` ; what growth inhibition value has been reported?
Output line: -49

Input line: Suppose we examine the compound `CNC(=S)NC(C)(C)C` ; what growth inhibition value has been reported?
Output line: -18.8

Input line: Suppose we examine the compound `CCc1nn(Cc2ccccc2)c2nc(C)c(CCc3ccccc3)c(Cl)c12` ; what growth inhibition value has been reported?
Output line: 7.35

Input line: Suppose we examine the compound CCC(C)(C)C1CCC(O)CC1 (stereo not given) ; what growth inhibition value has been reported?
Output line: -5.15

* * *

For each of the compounds below, state its growth inhibition.
Test: NCI Yeast Anticancer Drug Screen. Data for the sgs1 mgt1 strain (AID 161);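 also: 0% = growth of cultures given vehicle only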
Settings: S. cerevisiae sgs1 mgt1 strain, at 50.0 µM, active compounds read high
The panel holds about 79,000 compounds, 15% with a hit somewhere; the sample as a whole holds those more often. Calls of active or inactive are those of the source. No stated cut-off is given here; in the data, active means growth inhibition above about 70%; inactive means the rest.

Input line: Suppose we examine the compound `CC(=O)NCc1cc(C)c(C)cc1C` ; what growth inhibition value has been reported?
Output line: 1.25% (inactive)

Input line: Suppose we examine the compound `COc1cccc(O)c1O` ; what growth inhibition value has been reported?
Output line: 1.2% (inactive)

Input line: Suppose we examine the compound CC1(O)CCCCC1O (stereo unspecified) ; what growth inhibition value has been reported?
Output line: -8.3% (inactive)

Input line: Suppose we examine the compound `CCOc1ccc(Br)cc1/C=N\N=C\c1cc(Br)ccc1OCC` ; what growth inhibition value has been reported?
Output line: -1.65% (inactive)

Input line: Suppose we examine the compound `COC(=O)c1ccc(NC(=O)CCl)cc1` ; what growth inhibition value has been reported?
Output line: 50% (inactive)

Input line: Suppose we examine the compound `CCCCOC(=O)c1ccc(C(C)C)cc1` ; what growth inhibition value has been reported?
Output line: 8.65% (inactive)

* * *

Experiment: NCI Yeast Anticancer Drug Screen. Data for the cln2 rad14 strain (AID 165);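 also: 0% = growth equal to vehicle treated cultures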
Settings: S. cerevisiae cln2 rad14 strain, at 50.0 µM, active compounds read high
This is part of a sample that, as a whole, favours compounds with a hit. Of some 79,000 tested, about 15% had one in any assay.
measurement type: growth inhibition (%)
Please respond with the number in % and leave the unit unwritten.

Input line: Suppose we examine the compound COc1ccc(C(=O)C(Br)C(Br)C(=O)O)cc1 (configuration not stated) ; what growth inhibition value has been reported?
Output line: -64.7

Input line: Suppose we examine the compound `O=C(NCc1ccco1)Nc1c(Cl)cc(Cl)cc1Cl` ; what growth inhibition value has been reported?
Output line: 2.65

Input line: Suppose we examine the compound `CC(C)(O)C#CC#CC(C)(C)O` ; what growth inhibition value has been reported?
Output line: 3.8

Input line: Suppose we examine the compound `CCNc1nc2c(cnn2C)c(=O)[nH]1` ; what growth inhibition value has been reported?
Output line: -34.1

Input line: Suppose we examine the compound `C[N+](C)=c1ccc2nc3c(cc(Nc4ccccc4)c4ccccc43)oc-2c1` ; what growth inhibition value has been reported?
Output line: 29.6

Input line: Suppose we examine the compound `c1c(-c2cc(C3CC3)[nH]n2)n[nH]c1C1CC1` ; what growth inhibition value has been reported?
Output line: -16.4

Input line: Suppose we examine the compound `O=C(CC(=O)c1ccccc1O)c1ccccc1` ; what growth inhibition value has been reported?
Output line: 40.5

Input line: Suppose we examine the compound `CCOC(=O)C(CCC(C)C)C(=O)OCC` ; what growth inhibition value has been reported?
Output line: -53.4

Input line: Suppose we examine the compound `COc1cc2nc3cc([N+](=O)[O-])ccc3c(Cl)c2cc1OC` ; what growth inhibition value has been reported?
Output line: 4.3

Input line: Suppose we examine the compound CSC[C@H](NC(=O)COc1cccc2cnccc12)C(=O)NC(Cc1ccccc1)C(O)C(=O)N1CSC[C@H]1C(=O)NC(C)(C)C (some centres not stated) ; what growth inhibition value has been reported?
Output line: 17.6

Input line: Suppose we examine the compound COC(=O)CCCCC1=CCC2C(=O)C=C(O)C2C1 (configuration not stated) ; what growth inhibition value has been reported?
Output line: -2.5

Input line: Suppose we examine the compound CC1NC(=O)NC1CCCCCC(=O)O (configuration not stated) ; what growth inhibition value has been reported?
Output line: 12.5

* * *

Test: NCI Yeast Anticancer Drug Screen. Data for the sgs1 mgt1 strain (AID 161);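 also: 0% = growth of cultures given vehicle only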
Conditions: S. cerevisiae sgs1 mgt1 strain, at 50.0 µM, active compounds read high
Protocol: Growth inhibition of yeast strains with defined genetic alterations is measured as a screen for potential anti-cancer activity. Selected strains with alterations in DNA damage repair or cell cycle control were exposed to compounds and growth inhibition was measured relative to vehicle treated controls. The strain used in this assay is sgs1 mgt1
This is part of a sample that, as a whole, favours compounds with a hit. Of some 79,000 tested, about 15% had one in any assay. The source made the active and inactive calls. No stated cut-off is given here; in the data, active means growth inhibition above about 70%; inactive means the rest.
measurement type: growth inhibition

Input line: Suppose we examine the compound `Nc1ccc(N)c([N+](=O)[O-])c1` ; what growth inhibition value has been reported?
Output line: -27.3% (inactive)

Input line: Suppose we examine the compound CC1CCCC(CC(N)=O)CC1 (configuration not stated) ; what growth inhibition value has been reported?
Output line: 2.1% (inactive)

Input line: Suppose we examine the compound COc1cc2c3cc1Oc1c(OC)c(OC)cc4c1C(Cc1ccc(O)c(c1)Oc1ccc(cc1)CC3N(C)CC2)N(C)CC4 (configuration not stated) ; what growth inhibition value has been reported?
Output line: 0.65% (inactive)

Input line: Suppose we examine the compound `CCOc1ccccc1/C=N/Nc1nc2ccccc2o1` ; what growth inhibition value has been reported?
Output line: -2.8% (inactive)

Input line: Suppose we examine the compound `Cc1c(C(=O)O)c(=O)n(-c2ccccc2)n1C` ; what growth inhibition value has been reported?
Output line: -8.75% (inactive)

Input line: Suppose we examine the compound `COc1cc2nc3cc([N+](=O)[O-])ccc3c(Cl)c2cc1OC` ; what growth inhibition value has been reported?
Output line: -19.7% (inactive)

Input line: Suppose we examine the compound `O=C(CN1CCNCC1)N1CCOCC1` ; what growth inhibition value has been reported?
Output line: -17.8% (inactive)

Input line: Suppose we examine the compound CCCC1(c2ccccc2)NC(=O)NC1=O (configuration not stated) ; what growth inhibition value has been reported?
Output line: -6.1% (inactive)

Input line: Suppose we examine the compound `CC(=O)Cc1cc(-c2cc(CC(C)=O)[nH]n2)n[nH]1` ; what growth inhibition value has been reported?
Output line: -24.1% (inactive)

Input line: Suppose we examine the compound `O=[N+]([O-])c1ccc(/C=C/C=C/c2ccccc2)c(Cl)c1` ; what growth inhibition value has been reported?
Output line: -3.4% (inactive)

Input line: Suppose we examine the compound `N#CSc1cc(S(N)(=O)=O)ccc1N` ; what growth inhibition value has been reported?
Output line: 4.05% (inactive)

Input line: Suppose we examine the compound `O=[N+]([O-])c1ccc(CO)cc1` ; what growth inhibition value has been reported?
Output line: 8.85% (inactive)
